- testProtocol: qHTS assay for identifying genotoxic compounds that show differential cytotoxicity against isogenic chicken DT40 cell lines with known DNA damage response pathways - Rad54/Ku70 mutant cell line (AID 743015); note: nearly all actives have a fitted effect of over 60% in size; note: potency is the fitted concentration of half-maximal effect
- setupConditions: DT40 Rad54/Ku70 mutant viability, CellTiter-Glo, 40 h; series mostly up to 66.8 µM
Records with an inconclusive call do not appear. Active and inactive are the calls of the source. Calls come from the whole dose curve; as a rule, active = well fitted cell-killing curve with a large enough effect in the repeat runs; inconclusive = weak or mixed curves; inactive = no such curve, though single readings can be large or run the other way.
endpointLabel: Potency

molecule: O=C(/C=C/c1ccccc1)OCCCc1ccccc1
readoutValue: inactive

molecule: Cc1cc(OI)c(C(C)C)cc1-c1cc(C(C)C)c(OI)cc1C
readoutValue: inactive

molecule: CC(CCc1ccc2c(c1)OCO2)NN (stereo not given)
readoutValue: inactive

molecule: CC[C@H](NC(=O)c1cc(F)ccc1NS(=O)(=O)c1cccc2cccnc12)c1ccccc1
readoutValue: 64.9 µM (active)

molecule: O=C(CCCN1CCN(c2ccc(F)cc2)CC1)NC1c2ccccc2CSc2ccccc21 (stereo not given)
readoutValue: 18.8 µM (active)

molecule: Cc1ccc(Nc2nccc(N(C)c3ccc4c(C)n(C)nc4c3)n2)cc1S(N)(=O)=O
readoutValue: 10.6 µM (active)

molecule: CC1=CC(O)CC(C)(C)C1 (stereo not given)
readoutValue: inactive

molecule: C[C@@H]1C[C@H]2[C@@H]3CCC4=CC(=O)C=C[C@]4(C)[C@@]3(F)[C@@H](O)C[C@]2(C)[C@@]1(O)C(=O)CO
readoutValue: 55.3 µM (active)

molecule: N#C[C@@H]1C[C@@H]2C[C@@H]2N1C(=O)[C@@H](N)C12CC3CC(CC(O)(C3)C1)C2
readoutValue: inactive

molecule: O=C(C(=O)c1ccccc1)c1ccccc1
readoutValue: inactive

* * *

- testProtocol: qHTS assay to identify small molecule agonists of the sonic hedgehog signaling (Shh) pathway - cell viability counter screen (AID 1259366); note: nearly all actives have a fitted effect of over 50% in size
- setupConditions: NIH/3T3 Gli1-Luc viability, CellTiter-Fluor, 24 h; series mostly up to 92.4 µM
Inconclusive results are not listed. Active and inactive are the calls of the source. The call rests on the fitted dose curve; in most records, active means well fitted cell-killing curve with a large enough effect in the repeat runs; inconclusive means weak or mixed curves, or effect the other way; inactive means flat fitted curve, though single readings scatter.

molecule: CO[Si](C)(OC)OC
viability change, negative = cytotoxic: inactive
//
molecule: CC(=O)[C@H]1CC[C@H]2[C@@H]3C=CC4=CC(=O)CC[C@@]4(C)[C@@H]3CC[C@]12C
viability change, negative = cytotoxic: inactive
//
molecule: Nc1c(I)cc(I)c(C(=O)N(CCC(=O)O)c2ccccc2)c1I
viability change, negative = cytotoxic: inactive
//
molecule: CCC(C)=O
viability change, negative = cytotoxic: inactive
//
molecule: CC(CCc1ccc2c(c1)OCO2)NN (configuration not stated)
viability change, negative = cytotoxic: inactive
//
molecule: CC(C)(C)C(=O)C(Oc1ccc(Cl)cc1)n1ccnc1 (configuration not stated)
viability change, negative = cytotoxic: inactive
//
molecule: NC(=O)N(O)[C@@H]1C=C[C@H](Oc2cccc(Oc3ccc(F)cc3)c2)C1
viability change, negative = cytotoxic: inactive
//
molecule: CC1(C)O[C@@H]2C[C@H]3[C@@H]4CCC5=CC(=O)C=C[C@]5(C)[C@H]4[C@@H](O)C[C@]3(C)[C@]2(C(=O)CO)O1
viability change, negative = cytotoxic: inactive
//
molecule: C[C@]12CCC(=O)C=C1C=C[C@@H]1[C@@H]2CC[C@@]2(C)[C@H]1CC[C@@]21CCC(=O)O1
viability change, negative = cytotoxic: inactive
//
molecule: CCC1(C)CC(=O)NC1=O (configuration not stated)
viability change, negative = cytotoxic: inactive
//
molecule: CCCOCCOCCO
viability change, negative = cytotoxic: inactive
//
molecule: O=C(NCCCN1CCOCC1)c1ccc(Cl)cc1
viability change, negative = cytotoxic: inactive
